EXPERIMENTAL SYSTEM: T1, human PD-L1 (hPD-L1) expressed on transfected 300.19 cells (human, UniProt Q9NZQ7 19-290)
T1 construct: whole, on cells; also called B7H1
T1 sequence (Q9NZQ7 19-290): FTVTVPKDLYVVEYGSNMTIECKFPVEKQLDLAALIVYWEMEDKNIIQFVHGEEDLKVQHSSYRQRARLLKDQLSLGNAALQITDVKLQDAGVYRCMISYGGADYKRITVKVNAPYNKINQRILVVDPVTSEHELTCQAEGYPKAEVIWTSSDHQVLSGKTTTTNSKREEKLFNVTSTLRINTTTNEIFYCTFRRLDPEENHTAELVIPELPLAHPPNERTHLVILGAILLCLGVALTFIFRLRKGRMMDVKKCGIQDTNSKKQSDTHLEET
EXPERIMENT NOTES: FACS, hPD-L1 300.19 cells, assay 2, Ab 1 ug/ml
Overview of recorded Cells PE-A Mean for various binders

Ab-52 (antibody, V domains shown, also called huPD-L1 Ab # 52) VH: QVQLQESGGGVVQPGRSLRLSCSASGFTFSRHGMHWVRQAPGKGLEWVAVISHDGSVKYYADSMKGRFSISRDNSNNTLYLQMDSLRADDTAVYYCARGLSYQVSGWFDPWGQGTLVTVSS VL: NFMLTQPHSVSESPGKTVTISCTRSSGSIASNYVQWYQQRPGSAPTTVIYEDNQRPSGVPDRFSGSIDSSSNSASLTISGLKTEDEADYYCQSYDSTTPSVFGGGTKLTVL
34900 MFI
Ab-55 (antibody, V domains shown, also called huPD-L1 Ab # 55) VH: QVQLVQSGAEVKKPGASVKVSCKASGYTFTSYGISWVRQAPGQGLEWMGWTSPHNGLTAFAQILEGRVTMTTDTSTNTAYMELRNLTFDDTAVYFCAKVHPVFSYALDVWGQGTLVTVSS VL: NFMLTQPHSVSESPGKTVTISCTRSSGSIASNYVQWYQQRPGSSPTTVIYEDNQRPSGVPDRFSGSIDTSSNSASLTISGLKTKDEADYYCQSYDGITVIFGGGTKLTVL
26500 MFI

Now look at this one.
Query: What value of measured Cells PE-A Mean is listed for Ab-30 (antibody, V domains shown, also called huPD-L1 Ab # 30) VH: QVQLVQSGGSVVRPGESLRLSCVASGFIFDNYDMSWVRQVPGKGLEWVSRVNWNGGSTTYADAVKGRFTISRDNTKNSLYLQMNNLRAEDTAVYYCVREFVGAYDLWGQGTTVTVSS VL: QSALTQPASVSGSPGQSITISCTGTSSDVGGYNYVSWYQQHPGKAPKLMIYDVSNRPSGVSNRFSGSKSGNTASLTISGLQAEDEADYYCSSYTSSTLPFGGGTKLTVL ?
Response: 61200 MFI

# credit: patent US20200385482A1
